Ref: ChEMBL document CHEMBL1201862

Test system: HOP-62
Test: NCI tumour cell line growth inhibition, 48 h
Calls of active or inactive are those of the source. No stated cut-off is given here; in the data, active = GI50 up to about 1.1 µM and inactive = higher.
value_type: GI50

1. O=C1OCOC2(CCCC2)C1c1ccccc1 (configuration not stated): > 100 µM (inactive)
2. Cn1c(N2CCCC2)c(C=O)c(=O)n(C)c1=O: > 100 µM (inactive)
3. CCCCN/C(=N/C#N)NCc1ccccc1: > 100 µM (inactive)
4. O=C1CCC2CCOc3ccc(O)c1c32 (configuration not stated): > 100 µM (inactive)
5. CC(=O)/N=C1\N/C(=C/c2cc([N+](=O)[O-])ccc2O)CN1C: > 100 µM (inactive)
6. Cc1c(C#N)c(N)[nH]c(=S)c1C#N: > 100 µM (inactive)
7. CCOC(=O)Cn1sc2ncc([N+](=O)[O-])cc2c1=O: 15.4 µM (inactive)
8. COc1ccc2c(C)cc(=O)oc2c1OC: > 100 µM (inactive)
9. Cn1nc2ccc(Nc3cc(=O)[nH]c4ccc5nn(C)nc5c34)cc2n1: > 100 µM (inactive)
10. O[C@H]1[C@H](O)[C@@H](O)[C@H](O)[C@@H](O)[C@H]1O: > 1000 µM (inactive)
11. O=C(NN1C(=O)CSC1c1ccc(C(F)(F)F)cc1)c1ccncc1 (configuration not stated): > 100 µM (inactive)
12. CS(=O)(=O)OCCCOS(C)(=O)=O: > 100 µM (inactive)
